system: Staphylococcus aureus MW2 (mecA+); assay: normalized DsRed fluorescence (growth of mecA+ strain) (fraction of control range); higher = more growth of mecA+ strain; conditions: compound concentration: 150 uM; cefoxitin: subinhibitory; fluorescent label: DsRed
normalized DsRed fluorescence: recorded values
test-readout: normalized DsRed fluorescence

>>> quantitative_readout("CN(C(=O)C(Cl)Cl)c1ccc(OC(=O)c2ccco2)cc1")
0.938
>>> quantitative_readout("CN[C@@H]1[C@H](O[C@H]2[C@H](O[C@H]3[C@H](O)[C@@H](O)[C@H](N=C(N)N)[C@@H](O)[C@@H]3N=C(N)N)O[C@@H](C)[C@]2(O)C=O)O[C@@H](CO)[C@H](O)[C@H]1O")
0.69
>>> quantitative_readout("Nc1ncnc2c1ncn2[C@@H]1O[C@H](COP(=O)(O)O)[C@@H](O)[C@H]1O")
0.484

###

normalized GFP fluorescence: recorded values
test system: Staphylococcus aureus MW2 delta-mecA (mecA-); assay: normalized GFP fluorescence (growth of mecA- strain) (fraction of control range); higher = more growth of mecA- strain; conditions: compound concentration: 150 uM; cefoxitin: subinhibitory; fluorescent label: GFP
Structures can show the parent of a compound that is named as a salt.
test-readout: normalized GFP fluorescence

>>> quantitative_readout("Cc1cccc(C)c1OCC(C)N (centres undefined)")
0.344
>>> quantitative_readout("NCCCC[C@H](N[C@@H](CCc1ccccc1)C(=O)O)C(=O)N1CCC[C@H]1C(=O)O")
0.972
>>> quantitative_readout("CCc1nc(N)nc(N)c1-c1ccc(Cl)cc1")
0.211
>>> quantitative_readout("Cn1c(=O)c2[nH]cnc2n(C)c1=O [Aminophylline (Truphylline)]")
0.38
>>> quantitative_readout("O=C1CC2(CCCC2)CC(=O)N1CCCCN1CCN(c2ncccn2)CC1")
0.698
>>> quantitative_readout("O=C1CN2Cc3c(ccc(Cl)c3Cl)N=C2N1")
0.237
>>> quantitative_readout("CN1C(C(=O)Nc2ccccn2)=C(O)c2sccc2S1(=O)=O")
0.0134
>>> quantitative_readout("COc1cc(OC)c(C(=O)CCCN2CCCC2)c(OC)c1 [Buflomedil HCl]")
0.4
>>> quantitative_readout("CN(C)c1cc(NC(=O)CNC(C)(C)C)c(O)c2c1C[C@H]1C[C@H]3[C@H](N(C)C)C(O)=C(C(N)=O)C(=O)[C@@]3(O)C(O)=C1C2=O [Tigecycline]")
0.473

###

normalized DsRed fluorescence: recorded values
test system: Staphylococcus aureus MW2 (mecA+); test: normalized DsRed fluorescence (growth of mecA+ strain) (fraction of control range); higher = more growth of mecA+ strain; details: compound concentration: 150 uM; cefoxitin: subinhibitory; fluorescent label: DsRed
test-readout: normalized DsRed fluorescence

>>> quantitative_readout("COc1ccc2c(c1)C(=O)N(CCc1ccc(S(=O)(=O)NC(=O)NC3CCCCC3)cc1)C(=O)C2(C)C")
0.134
>>> quantitative_readout("CCN(CC)C(=O)c1cccnc1")
0.829
>>> quantitative_readout("COC(=O)C1=C(C)NC(C)=C(C(=O)OCCN(C)Cc2ccccc2)C1c1cccc([N+](=O)[O-])c1 (centres undefined)")
1.02
>>> quantitative_readout("CC1(C)O[C@@H]2C[C@H]3[C@@H]4CCC5=CC(=O)CC[C@]5(C)[C@@]4(F)[C@@H](O)C[C@]3(C)[C@]2(C(=O)CCl)O1")
0.844

###

tested on: Staphylococcus aureus MW2 delta-mecA (mecA-); experiment: normalized GFP fluorescence (growth of mecA- strain) (fraction of control range); higher = more growth of mecA- strain; details: compound concentration: 150 uM; cefoxitin: subinhibitory; fluorescent label: GFP
Counter-ions that a name gives are not always drawn.
test-readout: normalized GFP fluorescence

>>> quantitative_readout("CCN[C@H]1C[C@H](C)S(=O)(=O)c2sc(S(N)(=O)=O)cc21 [Dorzolamide HCL]")
0.422
>>> quantitative_readout("CC[C@]1(O)C[C@H]2CN(CCc3c([nH]c4ccccc34)[C@@](C(=O)OC)(c3cc4c(cc3OC)N(C=O)[C@H]3[C@@](O)(C(=O)OC)[C@H](OC(C)=O)[C@]5(CC)C=CCN6CC[C@]43[C@@H]65)C2)C1")
0.501
>>> quantitative_readout("Nc1c2c(nc3ccccc13)CCCC2")
0.414
>>> quantitative_readout("CC(C)Cn1cnc2c(N)nc3ccccc3c21")
0.18

###

system: Staphylococcus aureus MW2 (mecA+); test: normalized DsRed fluorescence (growth of mecA+ strain) (fraction of control range); higher = more growth of mecA+ strain; settings: compound concentration: 150 uM; cefoxitin: subinhibitory; fluorescent label: DsRed
Where a name gives a salt, the structure may show the parent alone.
normalized DsRed fluorescence: recorded values
test-readout: normalized DsRed fluorescence

>>> result("CC(C)C[C@H](NC(=O)[C@H](CCc1ccccc1)NC(=O)CN1CCOCC1)C(=O)N[C@@H](Cc1ccccc1)C(=O)N[C@@H](CC(C)C)C(=O)[C@@]1(C)CO1 [Carfilzomib (PR-171)]")
1.11
>>> result("CN(C)C(=O)COC(=O)Cc1ccc(OC(=O)c2ccc(NC(=N)N)cc2)cc1 [Camostat Mesilate (FOY-305)]")
0.818
>>> result("CCc1c2c(nc3ccc(OC(=O)N4CCC(N5CCCCC5)CC4)cc13)-c1cc3c(c(=O)n1C2)COC(=O)[C@]3(O)CC")
0.626
>>> result("Cc1ccc(O)c([C@H](CCN(C(C)C)C(C)C)c2ccccc2)c1 [Tolterodine tartrate (Detrol LA)]")
0.489
>>> result("CO/N=C(\\C(=O)N[C@@H]1C(=O)N2C(C(=O)O)=C(C[N+]3(C)CCCC3)CS[C@H]12)c1csc(N)n1")
0.073
>>> result("CCNC(=O)CCC/C=C\\C[C@@H]1[C@@H](/C=C/[C@@H](O)CCc2ccccc2)[C@H](O)C[C@@H]1O [Bimatoprost]")
0.865
>>> result("CC[C@]1(O)C[C@H]2CN(CCc3c([nH]c4ccccc34)[C@@](C(=O)OC)(c3cc4c(cc3OC)N(C=O)[C@H]3[C@@](O)(C(=O)OC)[C@H](OC(C)=O)[C@]5(CC)C=CCN6CC[C@]43[C@@H]65)C2)C1")
0.633
>>> result("COC(=O)C1=C(C#N)NC(C)=C(C(=O)OC(C)C)C1c1cccc([N+](=O)[O-])c1 (centres undefined) [Nilvadipine (ARC029)]")
1.55
>>> result("CC(=O)N(CC(O)CO)c1c(I)c(C(=O)NCC(O)CO)c(I)c(C(=O)NCC(O)CO)c1I (centres undefined)")
0.849
>>> result("CCOc1cc([C@@H](CS(C)(=O)=O)N2C(=O)c3cccc(NC(C)=O)c3C2=O)ccc1OC")
0.579
>>> result("COc1cc2c(cc1Cc1cccc(Cl)c1F)c(=O)c(C(=O)O)cn2[C@H](CO)C(C)C [Elvitegravir (GS-9137)]")
0.102
>>> result("CCC[C@H](NC(=O)[C@@H]1[C@H]2CCC[C@H]2CN1C(=O)[C@@H](NC(=O)[C@@H](NC(=O)c1cnccn1)C1CCCCC1)C(C)(C)C)C(=O)C(=O)NC1CC1 [Telaprevir (VX-950)]")
1.39
>>> result("CC(=O)OCC(=O)[C@@]1(O)CC[C@H]2[C@@H]3CCC4=CC(=O)CC[C@]4(C)[C@H]3C(=O)C[C@@]21C")
0.634
>>> result("Clc1ccc(C(Cn2ccnc2)OCc2c(Cl)cccc2Cl)c(Cl)c1 (centres undefined) [Isoconazole nitrate (Travogen)]")
0.00958

###

test system: Staphylococcus aureus MW2 (mecA+); experiment: normalized DsRed fluorescence (growth of mecA+ strain) (fraction of control range); higher = more growth of mecA+ strain; conditions: compound concentration: 150 uM; cefoxitin: subinhibitory; fluorescent label: DsRed
Where a name gives a salt, the structure may show the parent alone.
normalized DsRed fluorescence: recorded values
test-readout: normalized DsRed fluorescence

>>> quantitative_readout("N[C@@H](Cc1cc(I)c(Oc2cc(I)c(O)c(I)c2)c(I)c1)C(=O)O")
0.575
>>> quantitative_readout("CCCN[C@H]1CCc2nc(N)sc2C1 [Pramipexole dihydrochloride monohydrate]")
0.597
>>> quantitative_readout("Cc1cnc(NC(=O)C2=C(O)c3ccccc3S(=O)(=O)N2C)s1")
0.469
>>> quantitative_readout("Cc1cccc(C)c1NC(=O)C(C)N (stereo unspecified)")
0.486
>>> quantitative_readout("OC[C@H]1O[C@@H](n2cnc3c2N=CNC[C@H]3O)C[C@@H]1O")
0.689
>>> quantitative_readout("CC(=O)N[C@@H](CS)C(=O)O")
0.653
>>> quantitative_readout("CC(C)(C)NC(=O)[C@H]1CC[C@H]2[C@@H]3CC[C@H]4NC(=O)C=C[C@]4(C)[C@H]3CC[C@]12C")
0.691
>>> quantitative_readout("COC(=O)C1=C(C)NC(C)=C(C(=O)OC(C)C)C1c1cccc2nonc12 (stereo unspecified)")
1.51
>>> quantitative_readout("CCC(=O)O[C@H](CC(=O)O)C[N+](C)(C)C")
1.23
>>> quantitative_readout("CC(C)n1c(/C=C/C(O)CC(O)CC(=O)O)c(-c2ccc(F)cc2)c2ccccc21 (stereo unspecified)")
0.369
>>> quantitative_readout("OCc1ccccc1O")
0.713
>>> quantitative_readout("Nc1ncn([C@H]2C[C@H](O)[C@@H](CO)O2)c(=O)n1")
0.802
>>> quantitative_readout("O=C(O)COCCN1CCN(C(c2ccccc2)c2ccc(Cl)cc2)CC1 (stereo unspecified)")
0.556
>>> quantitative_readout("CC1(C)S[C@@H]2[C@H](NC(=O)[C@H](C(=O)O)c3ccsc3)C(=O)N2[C@H]1C(=O)O")
0.864
>>> quantitative_readout("O=C1CCc2cc(OCCCCc3nnnn3C3CCCCC3)ccc2N1")
0.561
>>> quantitative_readout("C[N+]1(C)[C@@H]2CC[C@H]1C[C@@H](OC(=O)C(O)c1ccccc1)C2 (stereo partly specified)")
0.71
>>> quantitative_readout("CC(C)NCC(O)c1ccc(O)c(O)c1 (stereo unspecified) [Isoprenaline hydrochloride]")
0.758
>>> quantitative_readout("CNC[C@H](O)[C@@H](O)[C@H](O)[C@H](O)CO")
0.823
>>> quantitative_readout("O=C1c2c(O)ccc(O)c2C(=O)c2c(NCCNCCO)ccc(NCCNCCO)c21")
1.12
>>> quantitative_readout("Cc1ccc(Nc2nccc(N(C)c3ccc4c(C)n(C)nc4c3)n2)cc1S(N)(=O)=O")
0.586
>>> quantitative_readout("OCCN1C[C@H](O)[C@@H](O)[C@H](O)[C@H]1CO")
0.724
